Every entry's value here was drawn from patent US8580782B2.

Below, each entry is listed with its recorded pIC50.
target: CDK2 (cyclin A or cyclin E complex) (Homo sapiens (Human)); experiment: CDK2 in vitro kinase assay (either cyclin A or E-dependent), SPA with biotinylated Histone H1 peptide and 33P-ATP; settings: Table 87
For clarity, pIC50 is expressed as the negative log10 of concentration in mol/L.

CC(C)(C)c1cc(NCc2ccncc2)n2ncc(Br)c2n1 | 6.77
Fc1ccccc1-c1cc(NCc2cccnc2)n2ncc(Br)c2n1 | 7.96
N#Cc1cnn2c(NCc3ccncc3)cc(-c3ccccc3)nc12 | 6.21
CC(C)c1cc(NCc2ccncc2)n2ncc(Br)c2n1 | 7.38
Fc1ccccc1-c1cc(NCc2cccnc2)n2ncc(Cl)c2n1 | 7.68

The reported value for Clc1ccccc1-c1cc(NCc2cccnc2)n2ncc(Br)c2n1 in terms of pIC50 is 8.52
